MEASURE: melting point

Answered examples (3):
1. Cc1cccc(C[S+]([O-])c2nc3ccccc3[nH]2)c1N (stereo not shown)	156 to 157 °C
2. Nc1cc(Cl)ccc1C[S+]([O-])c1nc2ccccc2[nH]1 (stereo not shown)	173.5 to 175.5 °C
3. Nc1ccccc1C[S+]([O-])c1nc2cc(C(F)(F)F)ccc2[nH]1 (stereo not shown)	152 to 152.5 °C

Using the record for Cc1ccc(C)c(C[S+]([O-])c2nc3ccccc3[nH]2)c1N.O (stereo not shown) (hydrate or solvate) , report its melting point. 144 to 145 °C

Using the record for COc1ccc2[nH]c([S+]([O-])Cc3cccc(C)c3N)nc2c1 (stereo not shown) , report its melting point. 142 to 144 °C

###

Listing of recorded melting point by entry.

1) COc1ccc2[nH]c([S+]([O-])Cc3c(N)cc(C)c(OC)c3C)nc2c1 (centres unmarked)	149 to 155 °C

Using the record for "COc1ccc(N)c(CSc2nc3ccccc3[nH]2)c1.Cl.Cl" , report its melting point. 206 to 208 °C

Using the record for Nc1ccc(C(F)(F)F)cc1C[S+]([O-])c1nc2ccccc2[nH]1 (centres unmarked) , report its melting point. 185 to 187 °C

Using the record for "Cc1cccc(CSc2nc3ccccc3[nH]2)c1N" , report its melting point. 130 to 134 °C

###

MEASURE: melting point

Answered examples (5):
1. COc1ccc2[nH]c([S+]([O-])Cc3cc(C)ccc3N)nc2c1 (stereo not shown)	148 to 149 °C
2. Nc1ccc(Cl)cc1CSc1nc2ccccc2[nH]1	114 to 118 °C
3. Cc1cc(C)c(N)c(CSc2nc3ccccc3[nH]2)c1	139 to 141 °C
4. CCOc1ccc2[nH]c(SCc3ccccc3N)nc2c1.O (hydrate or solvate)	87 to 89 °C
5. Nc1ccccc1C[S+]([O-])c1nc2ccccc2[nH]1 (stereo not shown)	164 to 165 °C

Using the record for Nc1ccccc1C[S+]([O-])c1nc2cc(Cl)ccc2[nH]1 (stereo not shown) , report its melting point. 165 to 166 °C

Using the record for "CCOC(=O)c1ccc(N)c(CSc2nc3cc(OC)ccc3[nH]2)c1" , report its melting point. 140 to 146 °C

Using the record for CCOc1ccc2[nH]c([S+]([O-])Cc3cc(C)ccc3N)nc2c1 (stereo not shown) , report its melting point. 144 to 145 °C

Using the record for "Nc1ccc(C(F)(F)F)cc1CSc1nc2ccccc2[nH]1" , report its melting point. 130 to 137 °C

Using the record for Nc1ccc(F)cc1C[S+]([O-])c1nc2ccccc2[nH]1 (stereo not shown) , report its melting point. 184 to 185 °C

Using the record for Cc1ccc2[nH]c([S+]([O-])Cc3ccccc3N)nc2c1 (stereo not shown) , report its melting point. 170 to 171 °C

Using the record for "CN(C)c1ccccc1CSc1nc2ccccc2[nH]1" , report its melting point. 167 to 170 °C

###

MEASURE: melting point

Answered examples (9):
1) COc1cc(Cl)c(C)c(C[S+]([O-])c2nc3ccccc3[nH]2)c1N (stereo not shown)	163 to 164 °C
2) CCOc1ccc2[nH]c([S+]([O-])Cc3ccccc3N)nc2c1 (stereo not shown)	154 to 155 °C
3) CC(=O)Nc1ccccc1C[S+]([O-])c1nc2ccccc2[nH]1 (stereo not shown)	201 to 202.5 °C
4) COc1c(C)cc(N)c(C[S+]([O-])c2nc3ccccc3[nH]2)c1C (stereo not shown)	150 to 155 °C
5) Cc1cccc(N)c1C[S+]([O-])c1nc2ccccc2[nH]1 (stereo not shown) (hydrate or solvate)	152 to 153 °C
6) Cc1ccc(C[S+]([O-])c2nc3ccccc3[nH]2)c(N)c1C (stereo not shown) (hydrate or solvate)	160 °C (dec.)
7) COc1ccc2[nH]c(SCc3ccccc3N)nc2c1	140 to 142 °C
8) Nc1cc(Cl)ccc1CSc1nc2ccccc2[nH]1	158 to 160.5 °C
9) COc1ccc2[nH]c([S+]([O-])Cc3ccccc3N)nc2c1 (stereo not shown)	147 to 148 °C

Field: next compound
Using the record for "COc1cc(Cl)c(C)c(CSc2nc3ccccc3[nH]2)c1N" , report its melting point. ~ 100 °C

Attribution: patent US6906078B2
